conditions: in isopropanol, 303.15 K
observation.type: solubility (mole fraction)

Field request: solubility (mole fraction) | item: O=Cc1ccc(O)c(Br)c1
0.0171
